Each item that follows carries a reported melting point.
experimentalSetup: a range is the spread between reports

compound: Nc1cc(Br)ccc1Br
melting point: 51 to 54 °C

compound: CC(=O)N(O)CCCCCNC(=O)CCC(=O)N(O)CCCCCNC(=O)CCC(=O)N(O)CCCCCN
melting point: 139 to 140 °C

compound: NCCCCN
melting point: 27 to 27.5 °C

compound: CCc1ccc(C)cc1
melting point: -62.3 to -62 °C

compound: CCCCC(C)=O
melting point: -57 to -55.5 °C

compound: CCCCCCCCC(=O)CC
melting point: 9 to 13 °C

compound: C=CBr
melting point: -139 to -138 °C

compound: CCN(CC)c1ccc2c(C)cc(=O)oc2c1
melting point: 70 to 74 °C

compound: O=Cc1ccc([N+](=O)[O-])cc1
melting point: 105 to 108 °C

compound: O=C(O)CCC(=O)O
melting point: 185 to 188 °C

compound: CCCCCCCCCCCCCCCCCC(=O)OC[C@@H](O)[C@H]1OC[C@H](O)[C@H]1O
melting point: 55 to 57 °C

compound: O=C(O)c1cccc(Cl)c1Cl
melting point: 168 to 169 °C

compound: CC(C)(C)c1ccc(N)cc1
melting point: 15 to 17 °C

compound: COc1cccc(C=O)c1O
melting point: 41 to 44.5 °C

compound: ClCCOCCOCCCl
melting point: -32 to -31.5 °C

compound: Nc1ccc(Cl)c([N+](=O)[O-])c1
melting point: 100 to 103 °C

compound: Cc1cc(O)cc(C)c1Cl
melting point: 114 to 115 °C

compound: CC(=O)Nc1ccccc1O
melting point: 205 to 208 °C

compound: NNC(=O)c1ccccc1O
melting point: 148 °C

compound: FC(F)(F)c1ccc(Cl)cc1
melting point: -36 to -33 °C

compound: N#C/C=C/C#N
melting point: 96.8 to 97 °C

compound: Oc1ccc(Sc2ccc(O)cc2)cc1
melting point: 153 to 155 °C

compound: O=C(O)CCCCCCCCC(=O)O
melting point: 131 to 134 °C

compound: O=C(O)CCI
melting point: 81.5 to 82 °C

compound: COc1ccc(C(C)=O)c(O)c1
melting point: 49 to 52.5 °C

compound: CCCCCCC(=O)Cl
melting point: -84 to -83.8 °C

compound: O=Cc1ccc(O)cc1
melting point: 117 to 118 °C

compound: Cc1cc(=O)cc(C)o1
melting point: 132 to 134 °C

compound: Cn1c(=O)ccc2ccccc21
melting point: 74 to 75 °C

compound: Cc1cccnc1
melting point: -18.1 to -18 °C

compound: CCCCCCCC1CCCCC1
melting point: -31 to -30 °C

compound: O=C1OC(=O)C2C1C1(Cl)C(Cl)=C(Cl)C2(Cl)C1(Cl)Cl (configuration not stated)
melting point: 233 to 237 °C

compound: CCOC(=O)c1ccc(OC)cc1
melting point: 7 to 8 °C

compound: O=C(O)c1ccc(CBr)cc1
melting point: 225 to 230 °C

compound: COC(=O)c1cc2ccccc2cc1O
melting point: 73 to 75.5 °C

compound: CNc1ccc([N+](=O)[O-])cc1
melting point: 152 to 153 °C

compound: NC(=O)CI
melting point: 93.5 to 94.5 °C

compound: CC(C)c1ccc2ccccc2c1
melting point: 14 to 14.5 °C

compound: O=C(O)Cc1cccc(Cl)c1
melting point: 78 to 79 °C

compound: COc1ccc(C(=O)c2ccccc2)cc1
melting point: 61.5 to 62 °C

compound: CCCCCCCCCCCCCC(N)=O
melting point: 104 to 106 °C

compound: CCN(CC)c1ccc(Br)cc1
melting point: 34 to 38 °C

compound: CC1=CC(=O)c2ccccc2C1=O
melting point: 102 to 107 °C

compound: Ic1ccc(-c2ccccc2)cc1
melting point: 112 to 114 °C

compound: Nc1cccc2c1C(=O)c1ccccc1C2=O
melting point: 250 to 254 °C

compound: c1ccc2c(c1)OCCOCCOCCOCCO2
melting point: 79 to 80 °C

compound: CC(=O)Nc1ccc(F)cc1
melting point: 152 to 154 °C

compound: COCc1ccccc1
melting point: -53 to -52 °C

compound: C=C
melting point: -169 °C

compound: COP(=S)(OC)SCn1nnc2ccccc2c1=O
melting point: 72 to 73 °C

compound: CC(=O)Oc1ccc(-c2ccc(OC(C)=O)cc2)cc1
melting point: 161 to 164 °C

compound: CCOCCOCCOCC
melting point: -45 to -44 °C

compound: CC(C)Cl
melting point: -118 to -117 °C

compound: Cc1ccc(N(CC2=NCCN2)c2cccc(O)c2)cc1
melting point: 174 to 175 °C

compound: CC1(C)C2CC[C@@]1(C)C(=O)C2
melting point: 178 to 180 °C

compound: CC(C)(C)c1ccc2oc(-c3ccc(-c4nc5cc(C(C)(C)C)ccc5o4)s3)nc2c1
melting point: 199 to 201 °C

compound: O=[N+]([O-])c1ccc(Oc2ccc(Cl)cc2Cl)cc1
melting point: 70 to 70.5 °C

compound: CCc1ccncc1
melting point: -91 to -90.5 °C

compound: CS(=O)(=O)c1ccc(C(=O)O)cc1
melting point: 270 to 273 °C

compound: Cc1ccccc1NC(=N)Nc1ccccc1C
melting point: 177 to 179 °C

compound: NC(=O)c1ccc([N+](=O)[O-])cc1
melting point: 200 to 202 °C

compound: CC(C)(C)C(O)C(Oc1ccc(Cl)cc1)n1cncn1 (configuration not stated)
melting point: 134 to 138 °C

====

Each entry below carries its reported melting point.
experimentalSetup: a range is the spread between reports

compound: CCCCCCc1ccc(O)cc1O
melting point: 65 to 68 °C
--
compound: Cc1ccc2[nH]cnc2c1
melting point: 112 to 116 °C
--
compound: Sc1nc2ccccc2s1
melting point: 179 to 181 °C
--
compound: CC(C)CC1CCCC1
melting point: -115 °C
--
compound: CCC(C)N (configuration not stated)
melting point: -105 to -104 °C
--
compound: c1ccc(-c2c3ccccc3c(-c3ccccc3)c3ccccc23)cc1
melting point: 246 to 251 °C
--
compound: COc1cc(-c2ccc(N)c(OC)c2)ccc1N
melting point: 136 to 137 °C
--
compound: Cc1c[nH]c2ccccc12
melting point: 95 °C
--
compound: CC(C(C)(C)C)C(C)(C)C
melting point: -39 to -38.7 °C
--
compound: O=C(C=Cc1ccccc1)OCc1ccccc1
melting point: 35 to 39 °C
--
compound: CCCCCCCCI
melting point: -46 to -44 °C
--
compound: CN(C)C=O
melting point: -61 to -60.4 °C
--
compound: CC(=O)Cl
melting point: -113 to -112 °C
--
compound: CCCCCCCCCCCCCCCCCC(=O)CCCCCCCCCCCCCCCCC
melting point: 87 to 89 °C
--
compound: CCCCOC(=O)c1ccc(N)cc1
melting point: 57.5 to 58 °C
--
compound: O=C(O)C(c1ccccc1)c1ccccc1
melting point: 146 to 147 °C
--
compound: CCCCCCCCCC
melting point: -30 to -29.7 °C
--
compound: CCCC(=O)NN
melting point: 44 to 45.5 °C
--
compound: C=CCC(C)(C)C
melting point: -137 °C
--
compound: OCc1c[nH]c2ccccc12
melting point: 97.5 to 98 °C
--
compound: CCI
melting point: -111 to -108 °C
--
compound: O=C=S
melting point: -139 °C
--
compound: O=[N+]([O-])c1c(O)cccc1O
melting point: 82 to 83 °C
--
compound: C=C=C(C)C
melting point: -114 °C
--
compound: C=CCSCC=C
melting point: -85 to -83 °C
--
compound: COc1ccc(Cl)c(Cl)c1Cl
melting point: 69 to 70 °C
--
compound: C1CCc2nnnn2CC1
melting point: 57.5 to 60 °C
--
compound: OCCCCCCO
melting point: 42 to 45 °C
--
compound: c1ccc2c(c1)c1ccccc1c1ccccc21
melting point: 196 to 199 °C
--
compound: COc1cc(C(=O)O)ccc1O
melting point: 212 to 214 °C
--
compound: Brc1ccc2ccccc2c1
melting point: 54 to 59 °C
--
compound: CCC1(C(C)C)C(=O)NC(=O)NC1=O
melting point: 198 to 203 °C
--
compound: O=C(C=NO)c1ccccc1
melting point: 127 to 129 °C
--
compound: O=C(O)c1ccco1
melting point: 130 to 134 °C
--
compound: Clc1ccc(-c2ccc(Cl)cc2)cc1
melting point: 149 °C
--
compound: CCCCCCCCCCCCCCO
melting point: 39 to 40 °C
--
compound: COc1cc(Cl)cc(OC)c1
melting point: 34 to 35 °C
--
compound: N#CCc1ccccc1[N+](=O)[O-]
melting point: 82 to 84 °C
--
compound: COP(N)(=O)SC (configuration not stated)
melting point: 45 to 46 °C
--
compound: O=P(O)(O)c1ccccc1
melting point: 161 to 164 °C
--
compound: CCCCN
melting point: -50 to -49 °C
--
compound: O=[N+]([O-])c1cccc(I)c1
melting point: 37 to 38.5 °C
--
compound: Cc1cc(Br)ccc1O
melting point: 64 to 64.7 °C
--
compound: Cc1cc2ccccc2cn1
melting point: 63 to 68 °C
--
compound: CCCCCC(=O)CCCCC
melting point: 14.5 to 15 °C
--
compound: Cc1ccc(CCl)cc1
melting point: 4 to 5 °C
--
compound: Oc1ccc2c(c1)CCCC2
melting point: 57 to 62 °C
--
compound: CC(C)(C)C(C)(C)C
melting point: 101 °C
--
compound: CC1=CC(=O)CC(C)(C)C1
melting point: -8.1 to -8 °C
--
compound: Nc1ccccc1-c1ccccc1
melting point: 49 to 51.5 °C
--
compound: O=C(Cc1ccccc1)Cc1ccccc1
melting point: 32 to 35 °C
--
compound: C=CS(=O)(=O)c1ccccc1
melting point: 68 to 69 °C
--
compound: C1=Cc2ccccc2C1
melting point: -2 to -1.8 °C
--
compound: CC(C)(O)CCC(C)(C)O
melting point: 89 to 92 °C
--
compound: O=C(Cl)CCc1ccccc1
melting point: -7 to -2 °C
--
compound: CCCOC(C)=O
melting point: -95 to -92 °C
--
compound: c1cnc2c(c1)ccc1cccnc12
melting point: 117 to 118 °C
--
compound: OCC(Br)(Br)Br
melting point: 79 to 81 °C
--
compound: Cc1cc(C)cc(C)c1
melting point: -45 to -44.7 °C
--
compound: CC(C(=O)O)c1ccc(N2Cc3ccccc3C2=O)cc1 (configuration not stated)
melting point: 212 to 214 °C
--
compound: CCCC(N)=O
melting point: 115 to 116 °C
--
compound: CN1CCC(O)CC1
melting point: 28 to 29 °C
--
compound: c1ccc(CNc2ncnc3nc[nH]c23)cc1
melting point: 231 °C
--
compound: N#CCc1ccc(Br)cc1
melting point: 47 to 48 °C
--
compound: CC(C)CCC(C)(C)C
melting point: -106 °C
--
compound: Oc1ccc2cccc(O)c2c1
melting point: 180 to 182 °C
--
compound: Cc1cc(C2(c3ccc(O)c(C)c3)OC(=O)c3ccccc32)ccc1O
melting point: 223 to 224 °C
